These data points were gathered from patent US4883797A.

# System: cerebral flow
# protocolDescription: Cerebral flow change by electromagnetic flowmetry, anesthetized dogs
# Assay type: in vivo
# particulars: endovenous, 5 mg/kg, variation over mean values before testing
Field: Cerebral flow Increase. Provide a value for each of the molecules that follow.
Please reply with the bare figure in % and do not write the unit itself.

Need Cerebral flow Increase, item O=C(CCCN1CCN(C(c2ccccc2)c2ccccc2)CC1)c1ccccc1 [Compound 11] 81.0

What Cerebral flow Increase value was documented for this molecule, C=CCN1CCN(C(c2ccccc2)c2ccccc2)CC1 [Aligeron 2HCI, reference compound] ? 64.0

If you can, please state the reported Cerebral flow Increase value of CCOC(=O)C=CCN1CCN(C(c2ccccc2)c2ccccc2)CC1 [Compound 7] . 32.0

Find the recorded Cerebral flow Increase belonging to C=C(CN1CCCCC1)CN1CCN(C(c2ccccc2)c2ccccc2)CC1 [Compound 6] and report it. 70.0

Any idea what its Cerebral flow Increase is? The molecule is Cl.Cl.c1ccc(C(c2ccccc2)N2CCN(CC3CC3)CC2)cc1 [Compound 1] 55.0

Given the entry c1ccc(C(c2ccccc2)N2CCN(CCCC3(c4ccccc4)OCCO3)CC2)cc1 [Compound 13] , report its measured Cerebral flow Increase. 140.1

Entry O=C1NCC(CN2CCN(C(c3ccccc3)c3ccccc3)CC2)O1 (centres unmarked) [Compound 15] : reported Cerebral flow Increase = ? 38.5

Consider the molecule shown here: C(=C\c1ccccc1)/CN1CCN(C(c2ccccc2)c2ccccc2)CC1 [Cinnarizine 2HCI, reference compound] What is its recorded Cerebral flow Increase? 76.7
